# Tested on: hepatocytes
# test method notes: RNA-seq of hepatocytes treated with Phase III failure compounds
With a cut-off of -0.2, any RNA-seq results, CYP2D6 expression strictly below it is called T; any RNA-seq results, CYP2D6 expression meeting it or above is called F.

Observe how each entry below is paired with its result.
- molecule smiles: "NC(=O)c1ccc(I)c([N+](=O)[O-])c1"
  assigned class: "F"
- molecule smiles: "COc1cc2c(Oc3ccc4[nH]c(C)cc4c3F)ncnc2cc1OCCCN1CCCC1"
  assigned class: "F"
- molecule smiles: "CCN(CC)CCN(Cc1ccc(-c2ccc(C(F)(F)F)cc2)cc1)C(=O)Cn1c(SCc2ccc(F)cc2)nc(=O)c2c1CCC2"
  assigned class: "T"
- molecule smiles: "COc1cc2nccc(Oc3ccc(NC(=O)Nc4cc(C)on4)c(Cl)c3)c2cc1OC"
  assigned class: "F"

Task item: Item Cn1cnc2c(F)c(Nc3ccc(Br)cc3Cl)c(C(=O)NOCCO)cc21 : RNA-seq results, CYP2D6 expression beneath -0.2, strictly?
Reply: F

Task item: Record: CCOC(=O)N1c2ccc(C(F)(F)F)cc2[C@@H](N(Cc2cc(C(F)(F)F)cc(C(F)(F)F)c2)C(=O)OC)C[C@H]1CC
Reply: F

Task item: Note, next up: Cn1cc(C2=C(c3cn(C4CCN(Cc5ccccn5)CC4)c4ccccc34)C(=O)NC2=O)c2ccccc21
Reply: T

Task item: Can you handle C=CCNC1=C2C[C@@H](C)C[C@H](OC)[C@H](O)[C@@H](C)/C=C(\C)[C@H](OC(N)=O)[C@@H](OC)/C=C\C=C(/C)C(=O)NC(=CC1=O)C2=O next?
Reply: F

---

# System: hepatocytes
# test method notes: RNA-seq of hepatocytes treated with Phase III failure compounds
# condition label: gene CDAN1; hepatocytes
Counter-ions that a name gives are not always drawn.
measured quantity: CDAN1 expression, RNA-seq result
Please reply with the value in numeric form only.

- molecule: "CN(C)[C@@H]1C(O)=C(C(N)=O)C(=O)[C@@]2(O)C(O)=C3C(=O)c4c(O)c(NC(=O)CN5CCCC5)cc(F)c4C[C@H]3C[C@@H]12 [TP-434 (Eravacycline), Eravacycline]"
  measured result: "−0.27"

Task item: Endpoint output: CDAN1 expression, RNA-seq result of COc1cccc2c1C(=O)c1c(O)c3c(c(O)c1C2=O)C[C@@](O)(/C(CO)=N/NC(=O)CCCCCN1C(=O)C=CC1=O)C[C@@H]3O[C@H]1C[C@H](N)[C@H](O)[C@H](C)O1 . Value?
Reply: −0.23

Task item: Repeat for the following molecule: Cn1c(COP(=O)(NCCBr)NCCBr)cnc1[N+](=O)[O-] [TH-302 (Evofosfamide), Evofosfamide]
Reply: 0.11

Task item: Further, for CC(C)[C@H](O)C(=O)N[C@@H](C)C(=O)N[C@@H]1C(=O)N(C)CCc2ccccc21 ?
Reply: −0.07

Task item: Please answer likewise for Fc1ccc(C(OCCN2CCN(CCCc3ccccc3)CC2)c2ccc(F)cc2)cc1 [Vanoxerine (dihydrochloride), Vanoxerine]
Reply: 0.25

Task item: Now the same for O=C(N[C@H]1CN2CCC1CC2)c1cc2cccc(Cl)c2s1 [EVP-6124 (hydrochloride) (encenicline), encenicline]
Reply: −0.04

Task item: Query COc1nc(C)cnc1NS(=O)(=O)c1cccnc1-c1ccc(-c2nnco2)cc1 next
Reply: 0.10

---

# Tested on: hepatocytes
# test method notes: RNA-seq of hepatocytes treated with Phase III failure compounds
# condition label: gene DAO; hepatocytes
measured quantity: RNA-seq results: DAO expression
Output: the number by itself.

Consider the following illustrative entries.
- molecule smiles: "COc1cc(Nc2ncc(F)c(Nc3ccc4c(n3)N(COP(=O)(O)O)C(=O)C(C)(C)O4)n2)cc(OC)c1OC"
  experimental target: "hepatocytes"
  measured quantity: "RNA-seq results: DAO expression"
  measured result: "−0.06"
- molecule smiles: "Cn1cc(C2=C(c3cn(C4CCN(Cc5ccccn5)CC4)c4ccccc34)C(=O)NC2=O)c2ccccc21"
  experimental target: "hepatocytes"
  measured quantity: "RNA-seq results: DAO expression"
  measured result: "−0.01"
- molecule smiles: "Cn1cnc2c(F)c(Nc3ccc(Br)cc3Cl)c(C(=O)NOCCO)cc21"
  experimental target: "hepatocytes"
  measured quantity: "RNA-seq results: DAO expression"
  measured result: "−0.11"

Task item: hepatocytes / RNA-seq results: DAO expression / CCN(CC)CCN(Cc1ccc(-c2ccc(C(F)(F)F)cc2)cc1)C(=O)Cn1c(SCc2ccc(F)cc2)nc(=O)c2c1CCC2 : value?
Reply: −1.06

Task item: Check CCOC(=O)N1c2ccc(C(F)(F)F)cc2[C@@H](N(Cc2cc(C(F)(F)F)cc(C(F)(F)F)c2)C(=O)OC)C[C@H]1CC too.
Reply: −0.72

Task item: Lookup C=CCNC1=C2C[C@@H](C)C[C@H](OC)[C@H](O)[C@@H](C)/C=C(\C)[C@H](OC(N)=O)[C@@H](OC)/C=C\C=C(/C)C(=O)NC(=CC1=O)C2=O
Reply: −0.79

---

The reader will find reported RNA-seq results: SLC25A19 values listed item by item below.
# Tested on: hepatocytes
# test method notes: RNA-seq of hepatocytes treated with Phase III failure compounds
# condition label: gene SLC25A19; hepatocytes
# Protocol: RNA-seq was performed to determine the effects of the compounds on hepatocytes. Significance was determined by the criteria of FPKM≥0.5, a log 2(fold-change)≥1, and a […].
// return just the number, without any unit appended

Task item: # input molecule: COc1cc(Nc2ncc(F)c(Nc3ccc4c(n3)N(COP(=O)(O)O)C(=O)C(C)(C)O4)n2)cc(OC)c1OC [fostamatinib] ; wanted: its RNA-seq results: SLC25A19
Reply: 0.07

Task item: Thanks! And COc1cc2nccc(Oc3ccc(NC(=O)Nc4cc(C)on4)c(Cl)c3)c2cc1OC [Tivozanib] ?
Reply: −0.47

Task item: Also CCC(CC)[C@H](NC(C)=O)[C@@H]1[C@H](O)[C@@H](C(=O)O)C[C@H]1NC(=N)N.O.O.O [peramivir (trihydrate), peramivir] ?
Reply: −0.19

---

# System: hepatocytes
# test method notes: RNA-seq of hepatocytes treated with Phase III failure compounds
# condition label: gene FABP1; hepatocytes
Answer not fulfilled if RNA-seq results: FABP1 expression is under 0.06, and fulfilled if it is 0.06 or more.

- compound: "COc1cc2nccc(Oc3ccc(NC(=O)Nc4cc(C)on4)c(Cl)c3)c2cc1OC [Tivozanib]"
  assigned class: "fulfilled"
- compound: "NC(=O)c1ccc(I)c([N+](=O)[O-])c1 [BSI-201]"
  assigned class: "not fulfilled"
- compound: "O=P(O)(NCCCl)NCCCl [Palifosfamide]"
  assigned class: "not fulfilled"
- compound: "C=CCNC1=C2C[C@@H](C)C[C@H](OC)[C@H](O)[C@@H](C)/C=C(\\C)[C@H](OC(N)=O)[C@@H](OC)/C=C\\C=C(/C)C(=O)NC(=CC1=O)C2=O [17-MG (Tanespimycin), Tanespimycin]"
  assigned class: "not fulfilled"
- compound: "Cn1cc(C2=C(c3cn(C4CCN(Cc5ccccn5)CC4)c4ccccc34)C(=O)NC2=O)c2ccccc21 [Enzastaurin]"
  assigned class: "not fulfilled"

Next:
Task item: Form field: RNA-seq results: FABP1 expression at least 0.06? Entry: COc1cc2c(Oc3ccc4[nH]c(C)cc4c3F)ncnc2cc1OCCCN1CCCC1 [Cediranib]
Reply: fulfilled

---

# System: hepatocytes
# test method notes: RNA-seq of hepatocytes treated with Phase III failure compounds
# condition label: gene DAO; hepatocytes
# Method: RNA-seq was performed to determine the effects of the compounds on hepatocytes. Significance was determined by the criteria of FPKM≥0.5, a log 2(fold-change)≥1, and a […].
Quick rule for you: RNA-seq results: DAO expression under 0.02 gets 1 (yes), anything else gets 0 (no).

Observe how each entry below is paired with its result.
- compound: "O=P(O)(NCCCl)NCCCl [Palifosfamide]"
  experimental target: "hepatocytes"
  assigned class: "1 (yes)"
- compound: "CCC(CC)[C@H](NC(C)=O)[C@@H]1[C@H](O)[C@@H](C(=O)O)C[C@H]1NC(=N)N.O.O.O [peramivir (trihydrate), peramivir]"
  experimental target: "hepatocytes"
  assigned class: "0 (no)"
- compound: "NC(=O)c1ccc(I)c([N+](=O)[O-])c1 [BSI-201]"
  experimental target: "hepatocytes"
  assigned class: "1 (yes)"

# ---- query compound ----
Task item: Does COc1cc2c(Oc3ccc4[nH]c(C)cc4c3F)ncnc2cc1OCCCN1CCCC1 [Cediranib] have RNA-seq results: DAO expression strictly under 0.02?
Reply: 0 (no)

---

Parameter RNA-seq results, CYP7B1 expression: see the listing below.
# Test system: hepatocytes
# test method notes: RNA-seq of hepatocytes treated with Phase III failure compounds

Illustrative cases are given below, each with its answer.
- molecule smiles: "Cn1cc(C2=C(c3cn(C4CCN(Cc5ccccn5)CC4)c4ccccc34)C(=O)NC2=O)c2ccccc21"
  experimental target: "hepatocytes"
  measured quantity: "RNA-seq results, CYP7B1 expression"
  measured result: 0.06
- molecule smiles: "NC(=O)c1ccc(I)c([N+](=O)[O-])c1"
  experimental target: "hepatocytes"
  measured quantity: "RNA-seq results, CYP7B1 expression"
  measured result: 0.03
- molecule smiles: "Cn1cnc2c(F)c(Nc3ccc(Br)cc3Cl)c(C(=O)NOCCO)cc21"
  experimental target: "hepatocytes"
  measured quantity: "RNA-seq results, CYP7B1 expression"
  measured result: "−0.15"
- molecule smiles: "CCN(CC)CCN(Cc1ccc(-c2ccc(C(F)(F)F)cc2)cc1)C(=O)Cn1c(SCc2ccc(F)cc2)nc(=O)c2c1CCC2"
  experimental target: "hepatocytes"
  measured quantity: "RNA-seq results, CYP7B1 expression"
  measured result: "−0.03"
- molecule smiles: "C=CCNC1=C2C[C@@H](C)C[C@H](OC)[C@H](O)[C@@H](C)/C=C(\\C)[C@H](OC(N)=O)[C@@H](OC)/C=C\\C=C(/C)C(=O)NC(=CC1=O)C2=O"
  experimental target: "hepatocytes"
  measured quantity: "RNA-seq results, CYP7B1 expression"
  measured result: 0.43

Task item: Give the measured RNA-seq results, CYP7B1 expression of COc1cc2c(Oc3ccc4[nH]c(C)cc4c3F)ncnc2cc1OCCCN1CCCC1 .
Reply: −0.93

Task item: Follow-up entry: CCOC(=O)N1c2ccc(C(F)(F)F)cc2[C@@H](N(Cc2cc(C(F)(F)F)cc(C(F)(F)F)c2)C(=O)OC)C[C@H]1CC
Reply: 0.26

Task item: Moving on to the next compound: COc1cc2nccc(Oc3ccc(NC(=O)Nc4cc(C)on4)c(Cl)c3)c2cc1OC
Reply: −1.02

Just for reference, patent US20210254056A1 is where these values come from.
